System: ATP;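 note: ATP exposure 15 min at 22 °C before imaging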
Method notes: switch fluorescence ratio, 500 uM ATP over buffer (Cy3 cluster intensity, sum of 5 cycles each) (fold (ratio)); higher = stronger signal-on switching upon ATP binding; sequences stand for … in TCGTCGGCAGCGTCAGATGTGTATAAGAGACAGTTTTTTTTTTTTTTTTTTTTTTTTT…TC
Condition info: aptamer strand: ATP DNA aptamer (quencher-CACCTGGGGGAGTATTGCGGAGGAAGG + anchor), 100 nM annealed; ATP concentration: 500 uM
The following sequences are listed with their measured switch fluorescence ratio values.
Just the number, please, no unit attached.

Reference set, count: 6
TTTGCTCACG	1.01
GGAAGATGTT	0.985
GCTGTTTTTA	0.981
AGCATTGTGA	0.998
GGTAGGAAAA	0.972
TAGGTGAAAC	0.988

Value of measured switch fluorescence ratio for the entry `TGCCGGCGCT` : 0.989

Value of measured switch fluorescence ratio for the entry `CTGTATTTGG` : 1

----------
The following sequences are listed with their measured switch fluorescence ratio values.
Tested on: ATP;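 note: ATP exposure 15 min at 22 °C before imaging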
Method notes: switch fluorescence ratio, 500 uM ATP over buffer (Cy3 cluster intensity, sum of 5 cycles each) (fold (ratio)); higher = stronger signal-on switching upon ATP binding; sequences stand for … in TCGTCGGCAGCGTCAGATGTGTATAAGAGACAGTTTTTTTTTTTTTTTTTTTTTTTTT…TC
Condition info: aptamer strand: ATP DNA aptamer (quencher-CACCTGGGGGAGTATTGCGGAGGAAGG + anchor), 100 nM annealed; ATP concentration: 500 uM
Just the number, please, no unit attached.

Reference set, count: 5
TCAATGGTTG	0.988
GTGCCCACGT	1
TAGGTCCCTG	0.99
ACATGTTATT	1.01
TGAAGTCGAC	1

Value of measured switch fluorescence ratio for the entry `AATGGGCGCT` : 0.972

Value of measured switch fluorescence ratio for the entry `ATGGGGCTCT` : 0.997

----------
Tested on: ATP;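 note: ATP exposure 15 min at 22 °C before imaging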
Method notes: switch fluorescence ratio, 500 uM ATP over buffer (Cy3 cluster intensity, sum of 5 cycles each) (fold (ratio)); higher = stronger signal-on switching upon ATP binding; sequences stand for … in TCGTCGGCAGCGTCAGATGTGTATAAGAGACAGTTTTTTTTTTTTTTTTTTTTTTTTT…TC
Condition info: aptamer strand: ATP DNA aptamer (quencher-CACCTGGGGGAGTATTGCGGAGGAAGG + anchor), 100 nM annealed; ATP concentration: 500 uM
Value kind: switch fluorescence ratio

Reference set, count: 4
GGGAAAGTAT	0.982
AAGTAATGGA	1.04
TGGACTTGGA	0.987
CATTATTTTT	1.01

Let me check: `TATCTACTGG` , system ATP, measured switch fluorescence ratio is 1.01

Let me check: `GGGATAATTG` , system ATP, measured switch fluorescence ratio is 0.978

Let me check: `TTTTGCATAT` , system ATP, measured switch fluorescence ratio is 1.26

Let me check: `GAGGGGTTTT` , system ATP, measured switch fluorescence ratio is 1.01

Let me check: `ATTTGGCTGG` , system ATP, measured switch fluorescence ratio is 0.986

Let me check: `CGAAGGGATG` , system ATP, measured switch fluorescence ratio is 0.982

Let me check: `TTACGGATGT` , system ATP, measured switch fluorescence ratio is 1.02

----------
The following sequences are listed with their measured switch fluorescence ratio values.
Test system: ATP;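 note: ATP exposure 15 min at 22 °C before imaging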
Method notes: switch fluorescence ratio, 500 uM ATP over buffer (Cy3 cluster intensity, sum of 5 cycles each) (fold (ratio)); higher = stronger signal-on switching upon ATP binding; sequences stand for … in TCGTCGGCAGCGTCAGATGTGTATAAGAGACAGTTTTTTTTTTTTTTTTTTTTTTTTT…TC
Condition info: aptamer strand: ATP DNA aptamer (quencher-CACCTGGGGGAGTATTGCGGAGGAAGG + anchor), 100 nM annealed; ATP concentration: 500 uM
Just the number, please, no unit attached.

GCAAGGAGGA	0.996
GGGGGTCTGT	0.972

Value of measured switch fluorescence ratio for the entry `ATGGTGCTGG` : 0.983

Value of measured switch fluorescence ratio for the entry `CCTGATTTGG` : 0.969

----------
System: ATP;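 note: ATP exposure 15 min at 22 °C before imaging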
Method notes: switch fluorescence ratio, 500 uM ATP over buffer (Cy3 cluster intensity, sum of 5 cycles each) (fold (ratio)); higher = stronger signal-on switching upon ATP binding; sequences stand for … in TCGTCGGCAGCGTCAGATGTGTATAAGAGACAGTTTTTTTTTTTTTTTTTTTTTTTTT…TC
Condition info: aptamer strand: ATP DNA aptamer (quencher-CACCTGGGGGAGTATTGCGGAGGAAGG + anchor), 100 nM annealed; ATP concentration: 500 uM
The following sequences are listed with their measured switch fluorescence ratio values.
Just the number, please, no unit attached.

Reference set, count: 6
GGGGATGAAT	1
CTATTTGAGG	0.983
ACCTTTTTAT	1.02
TAATCCTGTA	0.999
TTTTCCTAAC	0.999
TAGGGTGGG	1.02

Value of measured switch fluorescence ratio for the entry `AATTTGGGTC` : 0.981

Value of measured switch fluorescence ratio for the entry `AAGGGCTTTA` : 1.01

Value of measured switch fluorescence ratio for the entry `TGGGAAGGGC` : 1.02

Value of measured switch fluorescence ratio for the entry `GTAAAATAGA` : 1.01

Value of measured switch fluorescence ratio for the entry `GGTTTCCTTT` : 0.992

Value of measured switch fluorescence ratio for the entry `TTTGACCTGT` : 0.991

Value of measured switch fluorescence ratio for the entry `TACTCATGGG` : 1.01

Value of measured switch fluorescence ratio for the entry `ATTATGGTAT` : 1.02

Value of measured switch fluorescence ratio for the entry `ATATTGCGTT` : 1.01

Value of measured switch fluorescence ratio for the entry `CGAACCTTGG` : 0.998

Value of measured switch fluorescence ratio for the entry `GAGGGAGGCA` : 0.994

Value of measured switch fluorescence ratio for the entry `GCTCTGTTGG` : 1.01

Value of measured switch fluorescence ratio for the entry `GCGGTTGTCC` : 1

Value of measured switch fluorescence ratio for the entry `TTTGTATGG` : 0.982

Value of measured switch fluorescence ratio for the entry `TGCCTGCGGA` : 1

Value of measured switch fluorescence ratio for the entry `TGGAATGGAT` : 1.01

Value of measured switch fluorescence ratio for the entry `TACGCGGGGG` : 1.02

Value of measured switch fluorescence ratio for the entry `AAGGTAGCTT` : 1.01

Value of measured switch fluorescence ratio for the entry `TTGTTGGGGG` : 0.994

Value of measured switch fluorescence ratio for the entry `TACGGATTGT` : 0.988

Value of measured switch fluorescence ratio for the entry `AGGGATAAGC` : 0.988

Value of measured switch fluorescence ratio for the entry `TTACGGTGCC` : 0.987

Value of measured switch fluorescence ratio for the entry `CGGGCGAATA` : 1

Value of measured switch fluorescence ratio for the entry `CCCAGATTAA` : 1.01

Value of measured switch fluorescence ratio for the entry `CATTTGCTCT` : 1

Value of measured switch fluorescence ratio for the entry `GGGTATTGGA` : 0.983

----------
System: ATP;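 note: ATP exposure 15 min at 22 °C before imaging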
Method notes: switch fluorescence ratio, 500 uM ATP over buffer (Cy3 cluster intensity, sum of 5 cycles each) (fold (ratio)); higher = stronger signal-on switching upon ATP binding; sequences stand for … in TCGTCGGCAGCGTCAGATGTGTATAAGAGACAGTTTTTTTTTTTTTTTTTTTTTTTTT…TC
Condition info: aptamer strand: ATP DNA aptamer (quencher-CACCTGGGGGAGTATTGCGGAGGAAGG + anchor), 100 nM annealed; ATP concentration: 500 uM
Value kind: switch fluorescence ratio
Just the number, please, no unit attached.

Reference set, count: 5
TTTTTGATTT	1.01
GGCAACTGGG	1.02
TGATTATGGG	0.978
CAGCTGGGGG	1
TTGTGTGATT	1.02

Value of measured switch fluorescence ratio for the entry `AGGGTTTGGA` : 1

Value of measured switch fluorescence ratio for the entry `AAAATCGAGG` : 1.02

Value of measured switch fluorescence ratio for the entry `TATGGGATTG` : 0.998

Value of measured switch fluorescence ratio for the entry `TGGTTTAATG` : 0.997

Value of measured switch fluorescence ratio for the entry `TTATGTTTAA` : 0.999

Value of measured switch fluorescence ratio for the entry `AAAATGTGTT` : 1.01

Value of measured switch fluorescence ratio for the entry `GATCGGGCCG` : 0.975

Value of measured switch fluorescence ratio for the entry `GAGGGGGTTG` : 1.01

Value of measured switch fluorescence ratio for the entry `GGTTGGGTGT` : 1.02

Value of measured switch fluorescence ratio for the entry `TTGGGGGACG` : 0.982

Value of measured switch fluorescence ratio for the entry `GATTCGGCGT` : 0.987

Value of measured switch fluorescence ratio for the entry `TTAGTAGGAG` : 0.992

Value of measured switch fluorescence ratio for the entry `ATGTCGTGGG` : 1.01

Value of measured switch fluorescence ratio for the entry `TGGGTTTGAT` : 1.01

Value of measured switch fluorescence ratio for the entry `GTTGTTCGGT` : 1.01

Value of measured switch fluorescence ratio for the entry `TACACTGGGT` : 0.999

Value of measured switch fluorescence ratio for the entry `AAGGAGGGCA` : 0.984

Value of measured switch fluorescence ratio for the entry `GGCGGATTGG` : 1.02

Value of measured switch fluorescence ratio for the entry `AAGTGGCATG` : 0.974

Value of measured switch fluorescence ratio for the entry `TTTGTGGCTG` : 0.986

Value of measured switch fluorescence ratio for the entry `TGCGGGGGGC` : 0.991

Value of measured switch fluorescence ratio for the entry `TATTTTAATT` : 0.991

Value of measured switch fluorescence ratio for the entry `TTAAGGGCAT` : 1

Value of measured switch fluorescence ratio for the entry `TACTGGGGTT` : 0.981

Value of measured switch fluorescence ratio for the entry `GCAGGGATGA` : 0.994
